Target: T1, human eotaxin (human, UniProt P51671 24-97)
T1 construct: also called hEotaxin
T1 sequence (P51671 24-97 limits assumed): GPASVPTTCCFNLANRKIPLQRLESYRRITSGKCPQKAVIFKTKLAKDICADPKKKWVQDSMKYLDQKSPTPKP
Experiment: ELISA, coated antigen
Text: Determining cross-reactivity of anti-MCP-1 antibodies with other chemokines. […]
assay-metric: ELISA OD

binder | endpoint-result
anti-MCP-1 mAb 3.2 (antibody, V domains shown, also called 3.2 (neat)) VH: QVQLVQSGAEVKKPGASVKVSCKVSGYTLSELSMHWVRQAPGKGLEWMGGFDPEDGEIIHAQKFQGRVTMTEDTSTDTAYMELSSLRSEDTAVYYCATGDFWSGYYLDWWGQGTLVTVSS VL: EIVMMQSPATLSVSPGERATLSCRASQSVNSNLAWYQQKPGQAPRLLINGASTRATGIPARFSGSGSGTEFTLTISSLQSEDFAIYYCQQYNDWPTFTFGGGTKVEINR | 0.194 OD450
anti-MCP-1 mAb 2.4.1 (antibody, V domains shown) VH: QVQLVQSGAEVKKPGASVKVSCKASGYTFTGYYLHWVRQAPGQGLEWMGWINPYNDGTNYAQKFQGRVTMTRDTSISTAYMELSRLRSDDTAVYYCARDIAAAGAVYFDYWGQGTLVTVSS VL: DIQMTQSPSSLSASVGDRVTITCQASQDITTYLNWYQQKPGKAPKLLIYDASNLETGVPSRFSGSGSGTDFTFTISSLQPEDIATYYCQQYDNLPITFGQGTRLEIKR | 0.084 OD450
anti-MCP-1 mAb 1.6.1 (antibody, V domains shown) VH: QVQLVQSGAEVKKPGASVKVSCKVSGYTLTELSMHWVRQAPGKGLEWMGGFDPEDGETIYAQKFQGRVTMTEDTSTDTAYMELSSLRSEDTAVYYCATWYSGIYLAFDIWGQGTMVTVSS VL: EIVLTQSPDFQSVTPKEKVTITCRASQSIGSSLHWYQQKPDQSPKLLIKYASQSFSGVPSRFSGSGSGTDFTLTINSLEAEDAATYYCHQSSSLPHTFGGGTKVEIKR | 0.042 OD450
